melting point: recorded values

C=C[C@@]1(O)[C@@H](CO)O[C@@H](n2ccc(N)nc2=O)[C@@H]1O 194 to 197 °C
C#C[C@@]1(O)[C@@H](CO)O[C@@H](n2cc(C)c(=O)[nH]c2=O)[C@@H]1O 113 to 118 °C
CC#C[C@@]1(O)[C@@H](CO)O[C@@H](n2ccc(=O)[nH]c2=O)[C@@H]1O 211 to 213 °C

Measured melting point of C#C[C@@]1(O)[C@@H](CO)O[C@@H](n2cnc3c(=O)[nH]c(N)nc32)[C@@H]1O : 225 °C (dec.)

* * *

A collection of compounds and their measured melting point
Where a name gives a salt, the structure may show the parent alone.

These recorded examples may help you get a feel for the data.
compound	melting point
C#C[C@@]1(O)[C@@H](CO)O[C@@H](n2cc(F)c(N)nc2=O)[C@@H]1O	242 °C (dec.)
C[Si](C)(C)C#C[C@@]1(O)[C@@H](CO)O[C@@H](n2ccc(=O)[nH]c2=O)[C@@H]1O	175 to 177 °C
CC#C[C@@]1(O)[C@@H](CO)O[C@@H](n2ccc(N)nc2=O)[C@@H]1O (as salt: salt)	162 to 165 °C

For this compound ( C#C[C@@]1(O)[C@@H](CO)O[C@@H](n2c(=O)cc[nH]c2=O)[C@@H]1O ), measured melting point is 255 °C (dec.)
